biological target: human Fatty Acid Synthase (Homo sapiens); construct: made in house; experiment: Human FAS enzyme assay (decrease in NADPH fluorescence); format: biochemical; conditions: % inhibition at a concentration of 100 μmolar
measured.endpoint: inhibition at 100 µM (%)
Numbers only here, please. The scale is %.

Consider the worked cases shown below.
{"columns": ["molecule", "measured.endpoint", "unit.descriptor", "quantitative.readout"],
 "data": [
  ["Cc1ccc(C(=O)N2CCC(c3ccc(C#N)cc3)CC2)cc1NC(=O)NCCCCCNC(=O)N1CCOCC1", "inhibition at 100 µM", "%", 95.5],
  ["Cc1ccc(C(=O)N2CCC(c3ccc(C#N)cc3)CC2)cc1NC(=O)NC[C@@H](NC(=O)OC(C)(C)C)C(=O)O", "inhibition at 100 µM", "%", 106],
  ["COCC(C)NC(=O)Nc1cc(C(=O)N2CCC(c3ccc(C#N)cc3)CC2)ccc1C (stereo not shown)", "inhibition at 100 µM", "%", 90.1],
  ["Cc1ccc(C(=O)N2CCC(c3ccc(C#N)cc3)CC2)cc1NC(=O)N[C@H]1CCN(S(C)(=O)=O)C1", "inhibition at 100 µM", "%", 102],
  ["CCOC(=O)N1CCN(C(=O)Nc2cc(C(=O)N3CCC(c4ccc(C#N)cc4)CC3)ccc2C)CC1", "inhibition at 100 µM", "%", 82.4]
]}

Check the records and state inhibition at 100 µM for "Cc1ccc(C(=O)N2CCC(c3ccc(C#N)cc3)CC2)cc1NC(=O)NCCNC(=O)CO"
89.4

Check the records and state inhibition at 100 µM for "Cc1ccc(C(=O)N2CCC(c3ccc(C#N)cc3)CC2)cc1NC(=O)NCCNS(C)(=O)=O"
98.3

----------
Parameter inhibition at 100 µM: see the listing below.
target: human Fatty Acid Synthase (Homo sapiens, UniProt P49327); construct: made in house; assay: Human FAS enzyme assay (decrease in NADPH fluorescence); type: biochemical; settings: % inhibition at a concentration of 100 μmolar
Sequence (P49327 whole entry): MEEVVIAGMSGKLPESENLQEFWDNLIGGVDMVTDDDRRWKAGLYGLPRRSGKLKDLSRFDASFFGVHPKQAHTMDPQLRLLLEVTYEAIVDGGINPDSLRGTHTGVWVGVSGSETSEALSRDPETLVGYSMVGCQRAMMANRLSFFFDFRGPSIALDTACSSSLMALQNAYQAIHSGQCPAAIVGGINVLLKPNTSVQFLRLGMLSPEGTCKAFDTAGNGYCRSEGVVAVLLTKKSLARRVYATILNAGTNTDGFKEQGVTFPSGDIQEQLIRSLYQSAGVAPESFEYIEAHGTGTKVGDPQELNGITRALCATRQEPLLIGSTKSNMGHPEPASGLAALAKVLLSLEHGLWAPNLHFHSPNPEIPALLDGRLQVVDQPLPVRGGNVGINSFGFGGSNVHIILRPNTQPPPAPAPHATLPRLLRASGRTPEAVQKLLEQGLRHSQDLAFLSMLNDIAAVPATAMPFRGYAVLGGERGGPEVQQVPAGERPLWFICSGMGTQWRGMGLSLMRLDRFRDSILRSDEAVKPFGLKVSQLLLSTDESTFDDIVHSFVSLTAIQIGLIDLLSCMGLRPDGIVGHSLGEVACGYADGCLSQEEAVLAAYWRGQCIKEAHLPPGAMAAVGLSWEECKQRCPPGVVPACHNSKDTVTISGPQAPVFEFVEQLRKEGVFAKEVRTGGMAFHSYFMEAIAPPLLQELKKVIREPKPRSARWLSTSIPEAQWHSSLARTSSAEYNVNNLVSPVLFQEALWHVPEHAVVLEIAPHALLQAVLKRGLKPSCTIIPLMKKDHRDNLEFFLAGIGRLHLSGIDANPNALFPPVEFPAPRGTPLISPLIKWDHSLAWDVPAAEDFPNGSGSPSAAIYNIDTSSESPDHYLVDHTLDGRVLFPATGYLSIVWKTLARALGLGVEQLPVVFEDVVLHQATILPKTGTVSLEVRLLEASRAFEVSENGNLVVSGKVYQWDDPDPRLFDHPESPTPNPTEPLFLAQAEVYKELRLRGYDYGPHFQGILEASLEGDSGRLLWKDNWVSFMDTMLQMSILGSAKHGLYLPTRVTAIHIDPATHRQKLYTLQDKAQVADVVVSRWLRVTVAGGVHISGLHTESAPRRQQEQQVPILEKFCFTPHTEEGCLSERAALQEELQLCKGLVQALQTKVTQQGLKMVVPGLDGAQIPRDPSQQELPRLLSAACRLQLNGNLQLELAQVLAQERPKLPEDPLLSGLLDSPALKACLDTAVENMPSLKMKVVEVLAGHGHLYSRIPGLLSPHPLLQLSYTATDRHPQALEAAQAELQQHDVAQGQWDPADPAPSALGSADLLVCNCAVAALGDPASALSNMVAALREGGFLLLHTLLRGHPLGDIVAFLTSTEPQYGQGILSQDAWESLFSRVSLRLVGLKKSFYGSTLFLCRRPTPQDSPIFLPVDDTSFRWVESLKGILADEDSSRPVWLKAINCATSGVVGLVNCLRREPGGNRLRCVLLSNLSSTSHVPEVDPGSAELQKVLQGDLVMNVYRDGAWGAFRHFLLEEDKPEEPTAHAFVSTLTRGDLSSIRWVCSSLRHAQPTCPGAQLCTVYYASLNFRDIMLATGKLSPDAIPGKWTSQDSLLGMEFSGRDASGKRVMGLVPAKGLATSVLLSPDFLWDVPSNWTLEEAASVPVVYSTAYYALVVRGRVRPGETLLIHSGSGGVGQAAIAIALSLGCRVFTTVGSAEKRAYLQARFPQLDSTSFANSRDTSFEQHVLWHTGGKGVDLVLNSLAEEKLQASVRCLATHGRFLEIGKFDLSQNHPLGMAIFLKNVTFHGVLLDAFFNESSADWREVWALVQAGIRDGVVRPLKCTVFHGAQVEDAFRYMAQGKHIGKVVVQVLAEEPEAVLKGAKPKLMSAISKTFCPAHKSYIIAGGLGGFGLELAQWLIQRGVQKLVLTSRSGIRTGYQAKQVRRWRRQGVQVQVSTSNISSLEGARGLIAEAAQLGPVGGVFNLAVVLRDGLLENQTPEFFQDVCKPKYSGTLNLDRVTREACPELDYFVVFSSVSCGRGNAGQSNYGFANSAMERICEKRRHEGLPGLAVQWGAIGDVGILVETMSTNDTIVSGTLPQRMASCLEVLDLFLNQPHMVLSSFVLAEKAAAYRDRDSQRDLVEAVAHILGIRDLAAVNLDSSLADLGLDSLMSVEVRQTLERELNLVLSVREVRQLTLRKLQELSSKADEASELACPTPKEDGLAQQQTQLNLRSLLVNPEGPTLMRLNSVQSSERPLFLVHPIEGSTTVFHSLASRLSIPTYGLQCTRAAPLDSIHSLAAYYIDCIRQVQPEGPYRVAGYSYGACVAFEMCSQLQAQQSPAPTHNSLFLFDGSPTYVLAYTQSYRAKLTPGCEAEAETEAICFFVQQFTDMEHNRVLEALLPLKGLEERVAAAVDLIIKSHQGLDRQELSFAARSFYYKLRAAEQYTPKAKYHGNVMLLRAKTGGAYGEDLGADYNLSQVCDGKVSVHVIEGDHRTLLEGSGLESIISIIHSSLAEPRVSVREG
Numbers only here, please. The scale is %.

Consider the worked cases shown below.
{"columns": ["compound", "test.system", "measured.endpoint", "quantitative.readout"],
 "data": [
  ["Cc1ccc(C(=O)N2CCC(c3ccc(C#N)cc3)CC2)cc1NC(=O)NC1CCC1", "human Fatty Acid Synthase (Homo sapiens, UniProt P49327)", "inhibition at 100 µM", 92.4],
  ["Cc1ccc(C(=O)N2CCC(c3ccc(C#N)cc3)CC2)cc1NC(=O)NCCCCN(C)C", "human Fatty Acid Synthase (Homo sapiens, UniProt P49327)", "inhibition at 100 µM", 80.3],
  ["N#Cc1ccc(C2CCN(C(=O)c3ccc(OC(F)(F)F)c(NC(=O)NCc4ccccc4)c3)CC2)cc1", "human Fatty Acid Synthase (Homo sapiens, UniProt P49327)", "inhibition at 100 µM", 78.8],
  ["Cc1ccc(C(=O)N2CCC(c3ccc(C#N)cc3)CC2)cc1NC(=O)NCCNC(=O)c1cccn1C", "human Fatty Acid Synthase (Homo sapiens, UniProt P49327)", "inhibition at 100 µM", 96.2],
  ["CNCCNC(=O)Nc1cc(C(=O)N2CCC(c3ccc(C#N)cc3)CC2)ccc1C", "human Fatty Acid Synthase (Homo sapiens, UniProt P49327)", "inhibition at 100 µM", 86.2]
]}

Check the records and state inhibition at 100 µM for Cc1ccc(C(=O)N2CCC(c3ccc(C#N)cc3)CC2)cc1NC(=O)NC1Cc2cccnc2NC1=O (racemic)
86.5

Check the records and state inhibition at 100 µM for "Cc1ccc(C(=O)N2CCC(c3ccc(C#N)cc3)CC2)cc1NC(=O)N[C@H]1CC[C@H](NC(=O)OC(C)(C)C)C1"
99.6

Check the records and state inhibition at 100 µM for "Cc1ccc(C(=O)N2CCC(c3ccc(C#N)cc3)CC2)cc1NC(=O)NC1CCCC1"
91.3
